Tested on: L1210 (mouse leukemia cells)
Experiment: Ability to inhibit growth of mouse leukemia L1210 cells
Readout: IC50 (µM)
State the answer as a number, implicitly in µM.

**Q:** Any idea what IC50 was measured for CN(C)CCNS(=O)(=O)c1cccc2c(N)c3ccccc3nc12 ?
**A:** 13

----------
System: P388
Test: Percentage increase in life span treated animals over those of controls injected with P388 leukemia cells
Format: functional, Mus musculus
Readout: ILS
# respond with the number and nothing more

[[record]]
structure_string = "COc1cc(C(=O)NCCN(C)C)c2nc3ccccc3c(N)c2c1"
numeric_result = 72

[[record]]
structure_string = "COc1cccc2c(N)c3cccc(C(=O)NCCN(C)C)c3nc12"
numeric_result = 81

[[record]]
structure_string = "Nc1c2ccccc2nc2c(C(=O)NCCNCCO)cccc12"
numeric_result = 73

[[record]]
structure_string = "CN(C)CCNC(=O)c1cccc2c(N)c3ccccc3nc12"
numeric_result = 98

[[record]]
structure_string = "CCN(CC)CCNC(=O)c1cccc2c(N)c3ccccc3nc12"
numeric_result = 70


**Q:** # lookup: ILS of COc1ccc(C(=O)NCCN(C)C)c2nc3ccccc3c(N)c12
**A:** 27
